- Reported Conditions: in n-pentanol, 323.15 K
Property Measured: solubility (mole fraction)

1) CCCCCCCCCCCC[N+](C)(C)CCOc1ccccc1.[Br-] = 0.373

* * *

- Reported Conditions: in isobutanol, 313.15 K
Property Measured: solubility (mole fraction)

1. CCCCCCCCCCCC[N+](C)(C)CCOc1ccccc1.[Br-] = 0.224

* * *

- Reported Conditions: in tert-butanol, 323.15 K
Property Measured: solubility (mole fraction)

1) CCCCCCCCCCCC[N+](C)(C)CCOc1ccccc1.[Br-] = 0.273

* * *

- Reported Conditions: in DMF, 303.15 K
Property Measured: solubility (mole fraction)

1) CCCCCCCCCCCC[N+](C)(C)CCOc1ccccc1.[Br-] = 0.0609
